# system.tested: Fatty-acid amide hydrolase 1 (Homo sapiens)
# Sequence (O00519 whole entry): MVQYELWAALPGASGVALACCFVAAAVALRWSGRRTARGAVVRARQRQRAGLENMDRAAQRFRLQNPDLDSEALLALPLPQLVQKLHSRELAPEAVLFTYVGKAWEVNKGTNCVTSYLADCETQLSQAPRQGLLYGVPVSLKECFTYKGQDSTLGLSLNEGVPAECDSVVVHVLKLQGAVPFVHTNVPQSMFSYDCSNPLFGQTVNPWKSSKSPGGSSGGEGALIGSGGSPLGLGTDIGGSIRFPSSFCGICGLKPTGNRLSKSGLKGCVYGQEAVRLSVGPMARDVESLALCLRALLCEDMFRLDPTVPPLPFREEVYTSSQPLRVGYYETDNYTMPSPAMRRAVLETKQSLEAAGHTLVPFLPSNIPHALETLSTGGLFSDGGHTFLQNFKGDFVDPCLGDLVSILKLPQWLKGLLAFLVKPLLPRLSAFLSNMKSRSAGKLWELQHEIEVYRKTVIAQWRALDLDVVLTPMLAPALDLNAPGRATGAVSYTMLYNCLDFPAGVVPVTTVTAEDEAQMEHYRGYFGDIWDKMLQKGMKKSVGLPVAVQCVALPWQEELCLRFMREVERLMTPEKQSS
# measurement.notes: Inhibition of FAAH at pH 7.5
reported.metric: Ki (nM)
Use nM as the unit, but write only the number.

// Ki lookup, key: O=C(O)c1cccc(-c2cnc(C(=O)CCCCCCc3ccccc3)o2)n1
10.4
